Origin of measurements: patent US9714247B2

Here we list compounds with their recorded IC50 when tested on Syk(h) (Homo sapiens (Human), UniProt P43405).

1) CCN(CC)CCOc1ccc(Nc2cc3c(cn2)cc(-c2ccccc2)c(=O)n3CC)nc1
> 1 µM

With those in mind, consider the next compound.
What is its IC50 for Syk(h) (Homo sapiens (Human), UniProt P43405)? Entry: CCn1c(=O)c(-c2ccccc2)cc2cnc(Nc3ncc(CCN(C)C)s3)cc21
> 1 µM

----------
Hi! I'm sharing some IC50 results obtained with Pim-1(h) (Homo sapiens (Human)).
Sequence (P11309 whole entry): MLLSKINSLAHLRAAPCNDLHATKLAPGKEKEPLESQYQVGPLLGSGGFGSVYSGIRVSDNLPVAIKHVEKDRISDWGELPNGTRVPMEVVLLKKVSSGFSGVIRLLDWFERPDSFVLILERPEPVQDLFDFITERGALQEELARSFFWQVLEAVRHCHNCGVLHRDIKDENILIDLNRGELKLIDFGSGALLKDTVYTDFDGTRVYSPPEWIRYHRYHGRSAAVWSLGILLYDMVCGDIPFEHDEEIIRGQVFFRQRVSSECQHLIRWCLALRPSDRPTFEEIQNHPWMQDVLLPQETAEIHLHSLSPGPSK

1. CCN(CC)CCOc1ccc(Nc2cc3c(cn2)cc(-c2ccccc2)c(=O)n3CC)nc1 [Compound 1]
> 1 µM

Below: the item to evaluate.
Query (compound): CCn1c(=O)c(-c2ccccc2)cc2cnc(Nc3ncc(CCN(C)C)s3)cc21 [Compound 2] ; field requested: IC50
> 1 µM
